Value source: ChEMBL document CHEMBL1129239

# Ki per record follows
biological target: GABA-A receptor; anion channel; assay: Displacement of [3H]diazepam from rat cerebral cortex benzodiazepine receptor

{"Smiles Input": "CCc1cc(-c2nc3c(cnc4ccccc43)[nH]2)on1", "Ki / nM": 1.2}
{"Smiles Input": "COc1ccc2c3nc(-c4ccon4)nc-3c[nH]c2c1", "Ki / nM": 7.2}
{"Smiles Input": "Cc1cc(-c2nc3c(cnc4cc(Cl)ccc43)[nH]2)on1", "Ki / nM": 18.8}
{"Smiles Input": "CCc1cc(-c2nc3c(cnc4ccccc43)[nH]2)no1", "Ki / nM": 1.1}
{"Smiles Input": "Clc1ccc2c3nc(-c4ccon4)nc-3c[nH]c2c1", "Ki / nM": 3.5}
{"Smiles Input": "Clc1ccc(-c2nc3c(cnc4ccccc43)[nH]2)cc1", "Ki / nM": 270}
{"Smiles Input": "Clc1cccc2[nH]cc3nc(-c4ccon4)nc-3c12", "Ki / nM": 7.8}
{"Smiles Input": "c1ccc2c(c1)ncc1[nH]c(-c3ccon3)nc12", "Ki / nM": 0.6}
{"Smiles Input": "Cc1cc(-c2nc3c(cnc4ccc(Cl)cc43)[nH]2)on1", "Ki / nM": 0.5}
{"Smiles Input": "Cc1cc(-c2nc3c(cnc4c(F)cccc43)[nH]2)on1", "Ki / nM": 302}
{"Smiles Input": "Cc1cc(-c2nc3c(cnc4ccccc43)[nH]2)cs1", "Ki / nM": 4.5}
{"Smiles Input": "c1ccc(-c2nc3c(cnc4ccccc43)[nH]2)cc1", "Ki / nM": 22}
{"Smiles Input": "COc1ccc2[nH]cc3nc(-c4ccon4)nc-3c2c1", "Ki / nM": 0.5}
{"Smiles Input": "COc1ccc2[nH]cc3nc(-c4cc(C)no4)nc-3c2c1", "Ki / nM": 0.9}
{"Smiles Input": "c1ccc2c(c1)ncc1[nH]c(-c3ccno3)nc12", "Ki / nM": 1}
{"Smiles Input": "c1cc(-c2nc3c4c(ncc3[nH]2)CCCC4)no1", "Ki / nM": 1.2}
{"Smiles Input": "Cc1cc(-c2nc3c4c(ncc3[nH]2)CCCCC4)on1", "Ki / nM": 15.6}
{"Smiles Input": "Cc1cc(-c2nc3c(cnc4cccc(F)c43)[nH]2)on1", "Ki / nM": 4.9}
{"Smiles Input": "Cc1cc(-c2nc3c(cnc4ccc(F)cc43)[nH]2)on1", "Ki / nM": 1.1}
{"Smiles Input": "Cc1cc(-c2nc3c(cnc4cccc(Cl)c43)[nH]2)on1", "Ki / nM": 13.7}
{"Smiles Input": "Cc1cc(-c2nc3c(cnc4ccccc43)[nH]2)no1", "Ki / nM": 0.9}
{"Smiles Input": "Fc1ccc2[nH]cc3nc(-c4ccon4)nc-3c2c1", "Ki / nM": 0.8}
{"Smiles Input": "Cc1cc(-c2nc3c4c(ncc3[nH]2)CCCC4)on1", "Ki / nM": 2.2}
{"Smiles Input": "Fc1cccc2[nH]cc3nc(-c4ccon4)nc-3c12", "Ki / nM": 3.4}
{"Smiles Input": "c1cc(-c2nc3c[nH]c4c(c-3n2)COCC4)no1", "Ki / nM": 2.7}
{"Smiles Input": "Cc1cc(-c2nc3c4c(ncc3[nH]2)CCC4)on1", "Ki / nM": 14.6}
{"Smiles Input": "COc1ccc2c3nc(-c4cc(C)no4)nc-3c[nH]c2c1", "Ki / nM": 9.5}
{"Smiles Input": "Cc1cc(-c2nc3c4c(ncc3[nH]2)CCOC4)on1", "Ki / nM": 3.3}
{"Smiles Input": "c1cc(-c2nc3c4c(ncc3[nH]2)CCC4)no1", "Ki / nM": 5.3}
{"Smiles Input": "Clc1ccc2[nH]cc3nc(-c4ccon4)nc-3c2c1", "Ki / nM": 0.8}
{"Smiles Input": "c1csc(-c2nc3c[nH]c4ccccc4c-3n2)c1", "Ki / nM": 1.7}
{"Smiles Input": "c1cc(-c2nc3c4c(ncc3[nH]2)CCCCC4)no1", "Ki / nM": 5.2}
{"Smiles Input": "Fc1ccc2c3nc(-c4ccon4)nc-3c[nH]c2c1", "Ki / nM": 0.9}
{"Smiles Input": "Fc1cccc2c1ncc1[nH]c(-c3ccon3)nc12", "Ki / nM": 40}
{"Smiles Input": "Clc1cccc2c1ncc1[nH]c(-c3ccon3)nc12", "Ki / nM": 524}
{"Smiles Input": "Cc1cc(-c2nc3c(cnc4ccccc43)[nH]2)on1", "Ki / nM": 0.9}
{"Smiles Input": "Cc1cc(-c2nc3c(cnc4cc(F)ccc43)[nH]2)on1", "Ki / nM": 1.4}

###

test system: Mus musculus; experiment: Inverse agonist activity was evaluated by Mouse pentylenetetrazole (PTZ) proconvulsant activity test; by administering 75 mg/kg convulsive dose of PTZ, 1 hr after oral administration of test compound; type: functional
# ED50 per record follows

{"Compound": "O=C1C2C=Nc3ccccc3C2=NN1c1ccccc1 (centres undefined)", "ED50": "25 mg/kg"}
{"Compound": "COc1ccc2c3nc(-c4cc(C)no4)nc-3c[nH]c2c1", "ED50": "46.2 mg/kg"}
{"Compound": "c1cc(-c2nc3c[nH]c4c(c-3n2)COCC4)no1", "ED50": "25 mg/kg"}
{"Compound": "c1ccc2c(c1)ncc1[nH]c(-c3ccno3)nc12", "ED50": "1.94 mg/kg"}
